parameter: melting point

| recordSmiles | testResult |
| --- | --- |
| CCS(=O)(=O)c1cc(O)cnc1-c1cn2cnc(C(F)(F)F)cc2n1 | 229 to 232 °C |
| CCS(=O)(=O)c1cc(OCC(F)(F)F)cnc1-c1nc2cc(C(F)(F)F)ncn2c1Br | 86 to 88 °C |
| CCS(=O)(=O)c1cc(OCS(C)(=O)=O)cnc1-c1cn2cnc(C(F)(F)C(F)(F)F)cc2n1 | 248 to 250 °C |
| CCS(=O)(=O)c1cc(O)cnc1-c1nc2cc(C(F)(F)F)ncn2c1Br | 230 to 234 °C |
| CCS(=O)(=O)c1cc(OCCS(C)(=O)=O)cnc1-c1cn2cnc(C(F)(F)F)cc2n1 | 209 to 210 °C |

* * *

pest or weed control at 200 ppm for assorted compounds
# Test system: Spodoptera littoralis (Egyptian Cotton Leaf Worm)
# assay: Example B14 Spodoptera littoralis anti-feeding activity
# Type: in vivo
# cond: foliar, 72 h, application rate of 200 ppm, L1 larvae on sprayed cotton leaf discs, 3 days after infestation, read-out: control (anti-feeding effect)
# Method: Spodoptera littoralis (Egyptian Cotton Leaf Worm): Anti-Feeding Activity Cotton leaf discs were placed onto agar in 24-well microtiter plates and sprayed with aqueous test solutions prepared from 10,000 ppm DMSO stock solutions. After drying the leaf discs were infested with five L1 larvae. The samples were assessed for anti-feeding effect in comparison to untreated samples 3 days after infestation. […]
parameter: pest or weed control at 200 ppm

| compound | testResult |
| --- | --- |
| CCS(=O)(=O)c1cc(OCC(F)(F)F)cnc1-c1cn2cnc(SC(F)(F)F)cc2n1 [Compound P1] | ≥ 80% |
| CCS(=O)(=O)c1cc(OC)cnc1-c1cn2cnc(SC(F)(F)F)cc2n1 [Compound P5] | ≥ 80% |
| CCS(=O)(=O)c1cc(OCSC)cnc1-c1cn2cnc(C(F)(F)F)cc2n1 [Compound P16] | ≥ 80% |
| CCS(=O)(=O)c1cc(OC(C)C)cnc1-c1cn2cnc(SC(F)(F)F)cc2n1 [Compound P2] | ≥ 80% |
| CCS(=O)(=O)c1cc(OC(C)(C)C#N)cnc1-c1cn2cnc(C(F)(F)C(F)(F)F)cc2n1 [Compound P18] | ≥ 80% |
| CCS(=O)(=O)c1cc(OCC(C)C)cnc1-c1cn2cnc(C(F)(F)F)cc2n1 [Compound P14] | ≥ 80% |
| CCS(=O)(=O)c1cc(OCC(F)F)cnc1-c1cn2cnc(SC(F)(F)F)cc2n1 [Compound P4] | ≥ 80% |
| CCS(=O)(=O)c1cc(OC(F)F)cnc1-c1cn2cnc(C(F)(F)F)cc2n1 [Compound P21] | ≥ 80% |
